target: hADORA1/CHO (hA1 expressing) cells (Homo sapiens (Human), UniProt P30542); test: cell-based; conditions: FLIPR inhibition, 10 μM adenosine, read-out: cAMP & FLIPR IC50 (nM) hA1
Sequence (P30542 whole entry): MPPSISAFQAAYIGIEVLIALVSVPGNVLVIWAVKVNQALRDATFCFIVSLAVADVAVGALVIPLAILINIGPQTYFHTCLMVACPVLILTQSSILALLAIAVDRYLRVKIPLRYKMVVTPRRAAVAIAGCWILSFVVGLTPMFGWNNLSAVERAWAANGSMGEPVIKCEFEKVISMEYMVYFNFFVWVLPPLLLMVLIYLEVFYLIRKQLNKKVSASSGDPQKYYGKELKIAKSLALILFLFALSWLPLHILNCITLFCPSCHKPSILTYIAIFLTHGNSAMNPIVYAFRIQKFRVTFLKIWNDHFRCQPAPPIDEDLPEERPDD

{"MOLECULE": "CC(O)Cn1cc(-c2nc(C(=O)NCc3c(F)cccc3F)c(N)nc2-c2ncco2)ccc1=O (single isomer, unassigned) [Example 108]", "TARGET OR TEST SYSTEM": "hADORA1/CHO (hA1 expressing) cells (Homo sapiens (Human), UniProt P30542)", "IC50 (nM)": 55}
{"MOLECULE": "Cc1cnc2ccc(-c3nc(C(=O)NCc4cccc(N[C@H]5C[C@H](N(C)C)C5)n4)c(N)nc3-c3ncco3)cn12", "TARGET OR TEST SYSTEM": "hADORA1/CHO (hA1 expressing) cells (Homo sapiens (Human), UniProt P30542)", "IC50 (nM)": 781}
{"MOLECULE": "Cc1cnc2ccc(-c3nc(C(=O)NCC4CC(=O)N(C)C4)c(N)nc3-c3ncco3)cn12 (single isomer, unassigned; isomer 1) [Example 213]", "TARGET OR TEST SYSTEM": "hADORA1/CHO (hA1 expressing) cells (Homo sapiens (Human), UniProt P30542)", "IC50 (nM)": 505}
{"MOLECULE": "Cc1cnc2ccc(-c3nc(C(=O)NCc4cccc(N5CC6(CCN6C)C5)n4)c(N)nc3-c3ncco3)cn12", "TARGET OR TEST SYSTEM": "hADORA1/CHO (hA1 expressing) cells (Homo sapiens (Human), UniProt P30542)", "IC50 (nM)": 589}
{"MOLECULE": "Cc1cc(-c2nc(C(=O)NCc3c(F)cccc3F)c(N)nc2-c2ncco2)ccn1", "TARGET OR TEST SYSTEM": "hADORA1/CHO (hA1 expressing) cells (Homo sapiens (Human), UniProt P30542)", "IC50 (nM)": 58}
{"MOLECULE": "Cc1cnc2ccc(-c3nc(C(=O)NC[C@@H](C)O)c(N)nc3-c3ncco3)cn12", "TARGET OR TEST SYSTEM": "hADORA1/CHO (hA1 expressing) cells (Homo sapiens (Human), UniProt P30542)", "IC50 (nM)": 10000}
{"MOLECULE": "CN(C)c1ccnc(CNC(=O)c2nc(-c3ccc(=O)n(C)c3)c(-c3ncco3)nc2N)n1", "TARGET OR TEST SYSTEM": "hADORA1/CHO (hA1 expressing) cells (Homo sapiens (Human), UniProt P30542)", "IC50 (nM)": 3300}

###

molecular target: hADORA1/CHO (hA1 expressing) cells (Homo sapiens (Human), UniProt P30542); assay: cell-based; settings: FLIPR inhibition, 10 μM adenosine, read-out: cAMP & FLIPR IC50 (nM) hA1
METRIC NAME: log10 of IC50 (log10 of the value in nM)

{"COMPOUND": "COCCOc1cccnc1CNC(=O)c1nc(-c2ccc3ncn(C)c3c2)c(-c2ccc(F)cc2)nc1N", "log10 of IC50": 1.92}
{"COMPOUND": "Cc1cc(-c2nc(C(=O)NCc3ccccc3Br)c(N)nc2-c2ccc(F)cc2)cc(C)n1", "log10 of IC50": 3.15}
{"COMPOUND": "CCc1cnn2ccc(-c3nc(C(=O)NC[C@H]4CCCN4C)c(N)nc3-c3ncco3)cc12", "log10 of IC50": 4.00}
{"COMPOUND": "Cc1cnc2ccc(-c3nc(C(=O)NC(C)C4CCCO4)c(N)nc3-c3ncco3)cn12 (single isomer, unassigned; isomer 3) [Example 274]", "log10 of IC50": 2.44}
{"COMPOUND": "Nc1nc(-c2ncco2)c(-c2ccc(=O)n(C(F)F)c2)nc1C(=O)NCc1ncccc1F", "log10 of IC50": 1.54}
{"COMPOUND": "Cc1cnc2ccc(-c3nc(C(=O)NC[C@H]4CCCO4)c(N)nc3-n3nccn3)cn12", "log10 of IC50": 3.22}
{"COMPOUND": "COCCCNC(=O)c1nc(-c2ccc3ncc(C)n3c2)c(-c2ncco2)nc1N", "log10 of IC50": 3.19}
{"COMPOUND": "Cc1cnc2ccc(-c3nc(C(=O)NCc4ncccc4F)c(N)nc3-c3ncco3)cn12", "log10 of IC50": 1.65}
{"COMPOUND": "CNCCOc1cccnc1CNC(=O)c1nc(-c2ccc3ncc(C)n3c2)c(-c2ccc(F)cc2)nc1N", "log10 of IC50": 1.53}
{"COMPOUND": "Cc1cnc2ccc(-c3nc(C(=O)NCc4cccc(N5CCOCC5)n4)c(N)nc3-c3ncco3)cn12", "log10 of IC50": 3.49}
{"COMPOUND": "COc1ccccc1CNC(=O)c1nc(-c2cc(C)nc(C)c2)c(-n2ccc(C)n2)nc1N", "log10 of IC50": 1.64}
{"COMPOUND": "Nc1nc(-c2ncco2)c(-c2ccc3nncn3c2)nc1C(=O)NCc1c(F)cccc1F", "log10 of IC50": 4.00}
{"COMPOUND": "Cn1cc(-c2nc(C(=O)NCc3c(F)cccc3F)c(N)nc2-c2ccc(F)cc2)ccc1=O", "log10 of IC50": 1.82}
{"COMPOUND": "Cc1cnc2ccc(-c3nc(C(=O)NCCOC(F)(F)F)c(N)nc3-c3ncco3)cn12", "log10 of IC50": 1.84}
{"COMPOUND": "CNc1cccc(CNC(=O)c2nc(-c3ccc(=O)n(C)c3)c(-c3ncco3)nc2N)n1", "log10 of IC50": 2.45}
{"COMPOUND": "Cn1cc(-c2nc(C(=O)NCc3cccc(N)n3)c(N)nc2-c2ncco2)ccc1=O", "log10 of IC50": 3.97}
{"COMPOUND": "Cc1cnc2ccc(-c3nc(C(=O)NCc4cccc(N5CC(N(C)C)C5)n4)c(N)nc3-c3ncco3)cn12", "log10 of IC50": 3.45}
{"COMPOUND": "Cc1cnc2ccc(-c3nc(C(=O)NC[C@H](C)O)c(N)nc3-c3ncco3)cn12", "log10 of IC50": 4.00}
{"COMPOUND": "Cc1cnc2ccc(-c3nc(C(=O)NCc4cccc(N[C@H]5C[C@@H](N(C)C)C5)n4)c(N)nc3-c3ncco3)cn12", "log10 of IC50": 3.90}
{"COMPOUND": "Cc1cnc2ccc(-c3nc(C(=O)NCC4CC(C)(C)O4)c(N)nc3-c3ncco3)cn12 (single isomer, unassigned; isomer 2) [Example 270]", "log10 of IC50": 2.48}
{"COMPOUND": "Cc1cnc2ccc(-c3nc(C(=O)NCc4c(F)cccc4F)c(N)nc3N3CCOCC3)cn12", "log10 of IC50": 2.60}
{"COMPOUND": "Cn1cnc2ccc(-c3nc(C(=O)NCc4ncccc4OCCO)c(N)nc3-c3ccc(F)cc3)cc21", "log10 of IC50": 1.85}
{"COMPOUND": "Cc1cnc2ccc(-c3nc(CNC(=O)[C@@H]4CCOC4)c(N)nc3-c3ccc(F)cc3)cn12", "log10 of IC50": 1.59}
{"COMPOUND": "Cc1cnc2ccc(-c3nc(C(=O)NCCN(C)C)c(N)nc3-c3ncco3)cn12", "log10 of IC50": 4.00}
{"COMPOUND": "Cn1cc(-c2nc(C(=O)NCc3c(F)cccc3F)c(N)nc2-n2nccn2)ccc1=O", "log10 of IC50": 2.05}
{"COMPOUND": "Cc1cnc2ccc(-c3nc(C(=O)NCCn4ccccc4=O)c(N)nc3-c3ncco3)cn12", "log10 of IC50": 1.85}
{"COMPOUND": "COC(C)CNC(=O)c1nc(-c2ccc3ncc(C)n3c2)c(-c2ncco2)nc1N (single isomer, unassigned; isomer 2) [Example 241]", "log10 of IC50": 2.43}
{"COMPOUND": "Nc1nc(-c2ncco2)c(-c2ccc(=O)[nH]c2)nc1C(=O)NCc1c(F)cccc1F", "log10 of IC50": 0.54}
{"COMPOUND": "Cc1cc(-c2nc(C(=O)NCc3ccccc3Cl)c(N)nc2-c2ccc(F)cc2)cc(C)n1", "log10 of IC50": 2.78}
